experiment: Plasma PK study (IV and PO) in male Sprague-Dawley rats; assay type: in vivo, rat; conditions: male, Sprague-Dawley, rat, plasma, iv, 1 mg/kg, rat, IV 1 mg/kg, 0.50 h, animals 1-3; read-out: Individual plasma concentration
Property measured: concentration at 0.5 h (µg/mL)
Numbers only, in µg/mL.

q: Name the recorded concentration at 0.5 h of the compound listed here: COc1cc(C(=O)/C=C/c2ccc(F)cc2)cc(OC)c1OC
a: 0.0324

---

test: Plasma PK study (IV and PO) in male Sprague-Dawley rats; assay type: in vivo, rat; details: male, Sprague-Dawley, rat, plasma, po, 10 mg/kg, plasma, male Sprague-Dawley rat, PO 10 mg/kg, vehicle DMSO, average; read-out: Bioavailability
Property measured: Bioavailability (%)
One number for each entry, in %.

q: Name the recorded Bioavailability of the molecule listed here: COc1cc(C(=O)/C=C/c2ccc(F)cc2)cc(OC)c1OC [C16, 4-fluoro-3’,4’,5’-trimethoxychalcone]
a: 6.91
